test_system: anthrax edema factor (EF) (Bacillus anthracis, UniProt P40136)
Sequence (P40136 whole entry, looked up): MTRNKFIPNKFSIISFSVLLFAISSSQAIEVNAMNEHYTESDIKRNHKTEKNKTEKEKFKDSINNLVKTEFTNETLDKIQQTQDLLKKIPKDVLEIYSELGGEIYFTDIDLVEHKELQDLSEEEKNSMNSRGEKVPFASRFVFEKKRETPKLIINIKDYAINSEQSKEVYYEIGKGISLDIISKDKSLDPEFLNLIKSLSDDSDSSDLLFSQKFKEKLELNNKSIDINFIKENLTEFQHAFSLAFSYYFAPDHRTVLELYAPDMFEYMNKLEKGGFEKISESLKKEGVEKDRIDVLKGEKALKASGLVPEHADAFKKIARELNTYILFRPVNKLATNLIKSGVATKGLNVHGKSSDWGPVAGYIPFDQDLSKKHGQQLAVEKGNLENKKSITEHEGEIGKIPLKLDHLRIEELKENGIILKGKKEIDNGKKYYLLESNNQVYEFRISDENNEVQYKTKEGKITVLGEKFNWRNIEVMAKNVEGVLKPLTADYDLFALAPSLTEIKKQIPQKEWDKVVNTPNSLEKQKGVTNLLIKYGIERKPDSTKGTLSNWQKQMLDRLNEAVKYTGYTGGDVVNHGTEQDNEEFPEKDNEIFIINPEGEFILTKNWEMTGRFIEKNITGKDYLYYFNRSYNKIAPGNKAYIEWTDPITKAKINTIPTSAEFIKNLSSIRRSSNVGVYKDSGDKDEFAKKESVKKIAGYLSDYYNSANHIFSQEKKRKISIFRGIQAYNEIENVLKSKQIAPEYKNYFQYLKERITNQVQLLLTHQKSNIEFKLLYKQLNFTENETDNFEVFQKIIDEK
assay_notes: cell-based
condition_details: read-out: IC50
reported_metric: IC50 (µM)
Numbers only, in µM.

Query block: Return reported IC50; argument: COc1cccc(C2=C(C)C(=O)CC2)n1 [FI-3]
Result block: 30

* * *

test_system: anthrax edema factor (EF) (Bacillus anthracis, UniProt P40136)
assay_notes: cell-based
reported_metric: inhibition of EF / Edema Toxin induced cAMP production (in words)

COc1ccc(C2=C(C)C(=O)CC2)cn1 [FI-14] ... good activity
COc1cccc(C2=C(C)C(=O)CC2)n1 [FI-21] ... good activity

* * *

test_system: anthrax edema factor (EF) (Bacillus anthracis, UniProt P40136)
assay_notes: cell-based
condition_details: IC50
reported_metric: pIC50
Answers are plain numbers, as −log10 of the molar value.

Example compounds with recorded pIC50:
CN(C)c1cccc(NC(=O)c2cccc3c2C(=O)c2ccccc2-3)c1 [FIV-65] ... 5.82
COc1cccc(C2=CC(=O)CC(c3ccco3)C2)c1 (stereo not drawn) [FI-1] ... 4.70
O=C(Nc1ccccc1)c1cccc2c1C(=O)c1ccccc1-2 [FIV-61] ... 4.54
COc1cccc(C2=CC(=O)CC(c3ccc(F)cc3)C2)c1 (stereo not drawn) [FI-2] ... 4.55
COC(=O)c1cccc(NC(=O)c2cccc3c2C(=O)c2ccccc2-3)c1C [FIV-54] ... 4.89
COC(=O)c1ccc(OC)c(NC(=O)c2cccc3c2C(=O)c2ccccc2-3)c1 [FIV-58] ... 5.14
N=C(N)c1cccc(NC(=O)c2cccc3c2C(=O)c2ccccc2-3)c1 [FIV-68] ... 5.57
N#Cc1ccc(NC(=O)c2cccc3c2C(=O)c2ccccc2-3)c(Cl)c1 [FIV-70] ... 4.30
O=C(O)c1cccc(NC(=O)c2cccc3c2C(=O)c2ccccc2-3)c1O [FIV-39] ... 5.25
COc1ccc(C(=O)O)cc1NC(=O)c1cccc2c1C(=O)c1ccccc1-2 [FIV-1] ... 5.24

// batch mode: one pIC50 value per listed entry
1. O=C(O)c1cc(NC(=O)c2cccc3c2C(=O)c2ccccc2-3)ccc1O [FIV-35]
2. O=C(Nc1cccc(OC(F)(F)F)c1)c1cccc2c1C(=O)c1ccccc1-2 [FIV-67]
3. O=C(Nc1ccc(F)c(Cl)c1)c1cccc2c1C(=O)c1ccccc1-2 [FIV-60]
4. Cc1c(NC(=O)c2cccc3c2C(=O)c2ccccc2-3)cccc1C(=O)O [FIV-55]

Result block:
1: 5.21; 2: 5.16; 3: 5.42; 4: 4.94
